ADCC EC50 (nM), NK92-CD16A effectors, HEK293-hCCR8 targets, LDH release values for the binders below.
# Subject of test: human CCR8 (human, UniProt P51685 1-355)
# Sequence (P51685 whole entry): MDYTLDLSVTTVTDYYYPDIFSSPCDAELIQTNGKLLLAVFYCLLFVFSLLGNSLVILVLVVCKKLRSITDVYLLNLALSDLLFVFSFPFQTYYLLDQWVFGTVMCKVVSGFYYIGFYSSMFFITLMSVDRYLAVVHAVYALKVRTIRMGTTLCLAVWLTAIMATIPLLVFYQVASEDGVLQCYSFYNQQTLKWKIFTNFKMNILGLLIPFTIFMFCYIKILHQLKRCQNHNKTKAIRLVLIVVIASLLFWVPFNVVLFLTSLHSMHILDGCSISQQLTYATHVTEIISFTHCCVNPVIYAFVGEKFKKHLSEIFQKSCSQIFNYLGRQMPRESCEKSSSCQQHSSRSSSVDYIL
# Test name: cell-based or functional assay
Express the reported value numerically, then name its unit.

29A8 anti-CCR8 chimeric antibody (antibody, V domains shown) VH: EVQLVESGGGLVQPKGSLKLSCAASGFTFNAFAMNWVRQAPGKGLEWVARIRSKSNNYATYYADSVIDRFTISRDDSQSMLYLQMNNLKTEDTAMYYCVRGKEAGAYYAMDYWGQGTSVTVSS VL: DIVMTQAAPSVPVTPGESVSISCRSSKSLLHSNGNTYLYWFLQRPGQSPQLLIYRMSNLASGVPDRFSGSGSGTAFTLRISKVEAEDVGVYYCMQHLEYPFTFGGGTKLEIK ... 0.1 nM
87D8 anti-CCR8 chimeric antibody (antibody, V domains shown) VH: EVQLVESGGGLVQPKGSLRLSCAASGFTFNTYAMNWVRQAPGKGLEWIARIRSKSNNYATYYADSVKDRFTISRDDSQSMLYLQMNNLKTEDTAMYYCVRGKEAGAYYAMDYWGQGTSVTVSS VL: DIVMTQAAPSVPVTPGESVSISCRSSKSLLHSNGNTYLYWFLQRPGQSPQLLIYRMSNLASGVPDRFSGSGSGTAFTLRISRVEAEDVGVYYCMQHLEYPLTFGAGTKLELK ... 0.1 nM

Given the binder 116F10 anti-CCR8 chimeric antibody (antibody, V domains shown) VH: EVQLVESYGGLVQPKGSLKLSCAASGFTFNAYAMNWVRQAPGKGLEWVARIRSKSNNYATYYADSVKDRFTISRDDSQNILYLQMNNLKIEDTAMYFCVRQKFGSRGYYALDFWGQGASVTVSS VL: EIVLTQSPAIMSVSPGEKVTMTCRASSSVSSSYLHWYQQKSGASPKLWIYSTSTLASGVPARFSGSGSGTSYSLTISSVEAEDAATYYCQHYTVYPLGTFGGGTKLEIK , write its reported ADCC EC50 (nM), NK92-CD16A effectors, HEK293-hCCR8 targets, LDH release.
0.1 nM

Given the binder 30A7 anti-CCR8 chimeric antibody (antibody, V domains shown) VH: QVQLVESGGGLVQPKGSLKLSCAASGFTFNTYAMNWVRQAPGKGLEWVARIRSKSNYYATYYADSVKDRFTISRDDSQSMLYLQMNNLKTEDTAMYYCLRGKEAGAYYAMDYWGQGTSVTVSS VL: DIVMTQAAPSVPVTPGESVSISCRSSKSLLHSNGNTYLYWFLQRPGQSPQLLIYRMSNLASGVPDRFSGSGSGTAFTLRISRVEAEDVGVYYCMQHLEYPFTFGAGTKLEIK , write its reported ADCC EC50 (nM), NK92-CD16A effectors, HEK293-hCCR8 targets, LDH release.
0.21 nM
